Origin of the recorded values: patent US20200277377A1

Target: T1, human CTLA-4.ECD-6×His (human, UniProt P16410 36-161)
T1 construct: extracellular domain; also called WBP316.hCTLA-4.ECD-6×His; hCTLA4-His (WT)
T1 sequence: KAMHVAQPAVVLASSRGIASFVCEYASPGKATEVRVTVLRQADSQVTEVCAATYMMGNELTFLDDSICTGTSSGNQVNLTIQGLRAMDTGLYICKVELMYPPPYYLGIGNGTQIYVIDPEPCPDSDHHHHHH
Test: SPR, antibody captured on anti-human Fc, CTLA-4 ECD as analyte, 1:1 fit
measurement.type: kon (M⁻¹ s⁻¹)
// units = M⁻¹ s⁻¹; emit number, no label

Exam item: State its kon: W3162-1.101.2 xAb.IgG1 (antibody, V domains shown, Chimeric: rat variable regions fused with constant region of human antibody (label xAb.IgG1)) VH: EEQLVESGGGLVQPGKSLKLSCSASGFTFRSSAMHWIRQPPGKGLDWVAFISSGGDTAYADAVKGRFIVSRDNAENTLFLQLNSLKSEDTAIYYCVRMERIPTWGQGVMVTVSS VL: DIVLTQSPVLAVSLGQRATISCRASQSVSISSINLIHWYQQRPGQQPKLLIYRTSNLASGIPARFSGSGSGTDFTLSIDPVQADDVADYYCQQSRESPLTFGSGTKLEIK
Marked response: 695000
